# credit: patent US11613522B2

System: Hordeum murinum
Assay: Post-emergence herbicidal activity against HORMU
Type: in vivo
Settings: dosage 320 g/ha, rated visually after about 3 weeks
For each record, write down the corresponding Post-emergence herbicidal activity in % against HORMU.
Reply with just the number (in %).

Task item: Data request, read-out Post-emergence herbicidal activity in % against HORMU, for CONC(=O)[C@@H]1C[C@H](NC(=O)[C@@]2(C)CC(c3cc(F)cc(F)c3)=NO2)CO1 [Example I-24]
Reply: 100

Task item: And the next one, CN(C)C(=O)[C@@H]1C[C@H](NC(=O)[C@@]2(C)CC(c3cc(F)cc(F)c3)=NO2)CO1 [Example I-25] ?
Reply: 90

Task item: Further, for C[C@]1(C(=O)N[C@@H]2CO[C@H](C(=O)NCc3ncc(C(F)(F)F)cc3Cl)C2)CC(c2cc(F)cc(F)c2)=NO1 [Example I-27] ?
Reply: 100

Task item: Similarly, C=CC1(C(=O)NC2COC(C(=O)NC(C)CC(=O)OCC)C2)CC(c2cc(F)cc(F)c2)=NO1 (stereo not drawn) [Example I-22] ?
Reply: 100

Task item: Check CCCS(=O)(=O)NC(=O)[C@@H]1C[C@H](NC(=O)[C@@]2(C)CC(c3cc(F)cc(F)c3)=NO2)CO1 [Example I-28] too.
Reply: 90

Task item: Param item: C=C[C@]1(C(=O)N[C@@H]2CO[C@H](C(=O)NCC(=O)OC)C2)CC(c2cc(F)cc(F)c2)=NO1 [Example I-21]
Reply: 100

---

Answer each item with its documented Pre-emergence herbicidal activity in % against ECHCG.
System: Echinochloa crus-galli
Experiment: Pre-emergence herbicidal activity against ECHCG
Format: in vivo
Conditions: dosage 80 g/ha, scored visually after about 3 weeks vs untreated controls
Number in %, nothing else.

Task item: State the recorded Pre-emergence herbicidal activity in % against ECHCG for this entry: C=C[C@]1(C(=O)N[C@@H]2CO[C@H](C(=O)NCC(=O)OC)C2)CC(c2cc(F)cc(F)c2)=NO1 [Example I-21]
Reply: 100

Task item: Thanks! And C[C@]1(C(=O)N[C@@H]2CO[C@H](C(=O)NS(C)(=O)=O)C2)CC(c2cc(F)cc(F)c2)=NO1 [Example I-23] ?
Reply: 100

Task item: What do we get for C=C[C@]1(C(=O)N[C@@H]2CO[C@H](C(=O)NCCC(=O)OC)C2)CC(c2cc(F)cc(F)c2)=NO1 [Example I-20] ?
Reply: 100

Task item: And what about the molecule CONC(=O)[C@@H]1C[C@H](NC(=O)[C@@]2(C)CC(c3cc(F)cc(F)c3)=NO2)CO1 [Example I-24] ?
Reply: 90
